Target: UniProt P24941
Test: Enzyme Assay
QUANTITY_KIND: IC50 (nM)
Lab book: enter the figure in nM, no units written.

Reference set, count: 3
[O-][n+]1cccc(CNc2cc(-c3ccccc3F)nc3c(Br)cnn23)c1    13
COc1ccc2nc3c(c(OC)c2c1)C(C)N=N3 (stereo not given)    20
Cc1ccc(S(=O)(=O)N=S(C)c2ccc(Nc3ncc(Br)c(NC4CC4)n3)cc2)cc1 (stereo not given)    1000

// moving on: another record for IC50
Entry CC[C@@H](Nc1nc(NCc2ccccn2)c2ncn(C(C)C)c2n1)[C@H](C)O has what IC50?
520

* * *

Target: PIK3CB (Human) (UniProt P42338)
Sequence (P42338 whole entry, looked up): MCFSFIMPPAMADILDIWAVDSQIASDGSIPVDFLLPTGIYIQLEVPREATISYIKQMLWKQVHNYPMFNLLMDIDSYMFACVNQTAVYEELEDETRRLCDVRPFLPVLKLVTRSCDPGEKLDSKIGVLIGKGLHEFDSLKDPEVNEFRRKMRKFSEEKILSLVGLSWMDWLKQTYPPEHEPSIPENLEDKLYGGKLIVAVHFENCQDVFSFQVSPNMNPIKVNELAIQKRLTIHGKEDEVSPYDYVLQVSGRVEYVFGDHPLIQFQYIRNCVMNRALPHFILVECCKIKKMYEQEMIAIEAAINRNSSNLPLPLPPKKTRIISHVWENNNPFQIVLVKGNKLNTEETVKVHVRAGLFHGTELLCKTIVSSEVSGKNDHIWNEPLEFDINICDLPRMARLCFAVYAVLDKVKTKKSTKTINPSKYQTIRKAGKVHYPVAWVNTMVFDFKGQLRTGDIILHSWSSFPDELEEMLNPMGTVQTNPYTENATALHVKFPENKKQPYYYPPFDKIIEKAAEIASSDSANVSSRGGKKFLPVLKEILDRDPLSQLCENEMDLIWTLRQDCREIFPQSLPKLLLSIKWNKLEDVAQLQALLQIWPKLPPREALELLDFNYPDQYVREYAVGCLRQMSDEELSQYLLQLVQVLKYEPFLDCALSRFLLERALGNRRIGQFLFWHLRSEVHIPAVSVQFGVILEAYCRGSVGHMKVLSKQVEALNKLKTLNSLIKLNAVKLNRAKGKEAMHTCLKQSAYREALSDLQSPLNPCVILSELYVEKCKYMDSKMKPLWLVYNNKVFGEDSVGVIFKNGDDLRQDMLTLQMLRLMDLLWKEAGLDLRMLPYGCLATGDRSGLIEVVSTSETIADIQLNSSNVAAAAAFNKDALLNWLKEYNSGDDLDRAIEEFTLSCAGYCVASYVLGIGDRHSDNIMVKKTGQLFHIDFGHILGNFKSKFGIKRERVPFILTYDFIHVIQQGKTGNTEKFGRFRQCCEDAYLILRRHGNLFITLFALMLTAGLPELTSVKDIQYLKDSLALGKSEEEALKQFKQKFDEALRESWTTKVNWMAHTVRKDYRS
Experiment: Enzyme Assay
Threshold 0.3 µM. IC50 below it: TRUE. IC50 at it or above: FALSE.

Before answering, review these 3 worked examples.
CN1CCN(c2ccc(Nc3ncc4cc(C#N)c(=O)n(C5CCCC5)c4n3)cc2)CC1    FALSE
C[C@@H](Oc1ccccc1)c1cc(C(=O)N(C)CCO)cn2c(=O)cc(N3CCOCC3)nc12    TRUE
CCN1CCN(c2cccc3c2CCN3C(=O)Cc2nc(N3CCOCC3)cc(=O)[nH]2)CC1    FALSE

Given the entry CC[C@H](Nc1ncnc(N)c1-c1nnc(C)o1)c1cc2cccc(Cl)c2c(=O)n1-c1ccccc1 , would its reported IC50 be below 0.3 µM?
FALSE

Queued: O=C(c1nn([C@@H]2CCCN(CCN3CCOCC3)C2)c2c1CS(=O)(=O)c1c(F)cccc1-2)N1CCOCC1
FALSE

How about this compound: O=c1cc(NCc2ccccc2)nc(N2CCOCC2)[nH]1
FALSE

Also, C[C@H](Nc1ncnc2ccc(Cl)nc12)c1nc2c(F)ccc(Cl)c2c(=O)n1N1CCNCC1 please.
TRUE

* * *

Target: CDK2 (human) (UniProt P24941)
QUANTITY_KIND: pIC50
Please report pIC50 as the negative decimal logarithm of the molar concentration, giving only the number.

Quick one: pIC50 of CC(C)[C@H](CO)Nc1nc(Nc2cccc(Cl)c2)c2ncn(C(C)C)c2n1 ?
7.00

* * *

Molecular target: EGFR (UniProt P00533)
Sequence (P00533 whole entry, looked up): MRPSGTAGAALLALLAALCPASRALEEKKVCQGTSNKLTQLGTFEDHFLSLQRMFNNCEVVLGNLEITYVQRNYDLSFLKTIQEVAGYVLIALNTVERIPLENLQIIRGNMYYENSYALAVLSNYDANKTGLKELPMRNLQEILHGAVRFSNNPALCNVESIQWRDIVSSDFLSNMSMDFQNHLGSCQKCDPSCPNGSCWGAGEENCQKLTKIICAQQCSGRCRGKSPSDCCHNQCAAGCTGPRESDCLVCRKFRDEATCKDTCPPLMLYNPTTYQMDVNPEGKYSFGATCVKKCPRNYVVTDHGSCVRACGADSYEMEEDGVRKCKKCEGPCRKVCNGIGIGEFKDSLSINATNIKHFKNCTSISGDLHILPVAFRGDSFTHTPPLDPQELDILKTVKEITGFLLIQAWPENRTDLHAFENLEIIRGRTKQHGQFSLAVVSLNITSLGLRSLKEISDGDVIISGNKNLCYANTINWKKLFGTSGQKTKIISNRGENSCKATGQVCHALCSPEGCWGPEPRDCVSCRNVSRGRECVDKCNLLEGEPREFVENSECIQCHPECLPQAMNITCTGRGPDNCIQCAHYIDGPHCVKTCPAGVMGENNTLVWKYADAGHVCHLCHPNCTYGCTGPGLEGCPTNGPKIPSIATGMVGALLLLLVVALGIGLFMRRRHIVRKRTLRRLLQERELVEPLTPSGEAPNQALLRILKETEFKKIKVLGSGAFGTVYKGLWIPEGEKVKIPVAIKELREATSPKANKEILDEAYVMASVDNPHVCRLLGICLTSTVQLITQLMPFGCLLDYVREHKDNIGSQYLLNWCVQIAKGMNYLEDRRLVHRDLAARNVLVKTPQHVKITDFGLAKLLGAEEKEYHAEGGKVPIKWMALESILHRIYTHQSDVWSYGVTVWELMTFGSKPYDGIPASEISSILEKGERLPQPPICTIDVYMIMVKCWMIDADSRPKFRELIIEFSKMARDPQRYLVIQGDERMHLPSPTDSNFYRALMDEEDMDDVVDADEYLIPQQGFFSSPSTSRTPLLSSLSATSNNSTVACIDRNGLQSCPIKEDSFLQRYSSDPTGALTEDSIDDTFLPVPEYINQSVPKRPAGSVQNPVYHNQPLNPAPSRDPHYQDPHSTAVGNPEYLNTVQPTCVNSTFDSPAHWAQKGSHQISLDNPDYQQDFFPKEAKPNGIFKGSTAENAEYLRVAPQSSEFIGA
QUANTITY_KIND: IC50 (µM)
# number only, unit µM dropped from output

CC(C)N(CCC(=O)c1ccc2ccccc2c1)Cc1ccccc1    3.13

Query IC50 on EGFR (UniProt P00533) for C=CC(=O)c1ccc2ccccc2c1
12.5

* * *

Molecular target: EGFR (human)
QUANTITY_KIND: IC50

// IC50 lookup, key: Nc1nc(Nc2ccc(S(N)(=O)=O)cc2)nn1C(=O)c1c(F)cccc1F
> 10 µM

* * *

Target: EGFR (human) (UniProt P00533)
Sequence (P00533 whole entry, looked up): as the sequence (P00533 whole entry, looked up) above
QUANTITY_KIND: IC50 (nM)
Record the value in nM, omitting the unit from your answer.

What value of IC50 has been reported for the following molecule? Cc1c(NC(=O)OC[C@@H]2COCCN2)cn2ncnc(Nc3ccc4c(cnn4Cc4cccc(F)c4)c3)c12
20

* * *

Biological target: PIK3CG (human) (UniProt P48736)
Sequence (P48736 whole entry, looked up): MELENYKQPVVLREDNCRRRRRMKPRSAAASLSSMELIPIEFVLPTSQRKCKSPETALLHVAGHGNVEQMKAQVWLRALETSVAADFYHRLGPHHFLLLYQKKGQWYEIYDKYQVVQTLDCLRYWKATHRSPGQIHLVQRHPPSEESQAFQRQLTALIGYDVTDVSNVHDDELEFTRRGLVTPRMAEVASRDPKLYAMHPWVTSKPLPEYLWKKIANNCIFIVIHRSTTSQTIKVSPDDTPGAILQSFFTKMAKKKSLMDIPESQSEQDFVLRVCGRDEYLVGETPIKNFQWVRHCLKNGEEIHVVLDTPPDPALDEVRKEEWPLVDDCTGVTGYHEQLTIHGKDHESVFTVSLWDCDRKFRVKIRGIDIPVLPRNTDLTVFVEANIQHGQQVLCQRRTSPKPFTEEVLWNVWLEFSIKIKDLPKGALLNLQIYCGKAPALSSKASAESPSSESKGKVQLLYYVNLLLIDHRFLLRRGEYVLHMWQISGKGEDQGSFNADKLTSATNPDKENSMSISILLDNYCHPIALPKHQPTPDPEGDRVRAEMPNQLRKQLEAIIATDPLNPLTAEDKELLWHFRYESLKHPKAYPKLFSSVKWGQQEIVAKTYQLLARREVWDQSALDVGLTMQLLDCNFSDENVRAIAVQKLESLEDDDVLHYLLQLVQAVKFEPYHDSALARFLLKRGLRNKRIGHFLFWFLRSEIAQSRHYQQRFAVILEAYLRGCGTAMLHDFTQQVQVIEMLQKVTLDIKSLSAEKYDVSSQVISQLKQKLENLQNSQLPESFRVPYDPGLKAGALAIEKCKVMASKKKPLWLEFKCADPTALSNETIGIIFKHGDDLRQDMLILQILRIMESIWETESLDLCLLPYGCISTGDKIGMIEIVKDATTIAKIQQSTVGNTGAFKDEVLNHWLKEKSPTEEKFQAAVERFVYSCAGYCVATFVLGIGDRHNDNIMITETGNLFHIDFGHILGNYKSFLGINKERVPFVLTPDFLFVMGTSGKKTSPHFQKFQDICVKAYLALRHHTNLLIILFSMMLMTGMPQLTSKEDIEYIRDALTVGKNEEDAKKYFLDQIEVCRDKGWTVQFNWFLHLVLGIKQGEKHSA
Assay: Enzyme Assay
QUANTITY_KIND: pKd
# pKd is unitless: minus log10 of the molar concentration; print number only

pKd of CC(C)CCN1c2nc(Nc3cc(F)c(O)c(F)c3)ncc2N(C)C(=O)[C@H]1C on PIK3CG (human) (UniProt P48736)?
7.32
